Hey, just so you know, these numbers are from patent EP4563146A1.

The following compounds have recorded IC50 on West Nile Virus (WNV) NS2B-NS3 protease (West Nile virus).
Sequence (Q9Q6P4 1423-1470): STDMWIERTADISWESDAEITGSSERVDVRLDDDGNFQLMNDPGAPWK
Sequence (Q9Q6P4 1506-1689): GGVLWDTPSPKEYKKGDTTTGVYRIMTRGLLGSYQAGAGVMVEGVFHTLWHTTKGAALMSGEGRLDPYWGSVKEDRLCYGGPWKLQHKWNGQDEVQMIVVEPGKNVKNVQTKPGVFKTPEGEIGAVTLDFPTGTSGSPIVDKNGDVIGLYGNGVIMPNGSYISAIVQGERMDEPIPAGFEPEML

Use the examples below as a reference point.
CNC(=O)[C@H]1CCC[C@@H]([n+]2cc([N-]C(=O)Nc3cc(NC(=O)Cc4ccccc4C)cc(C(F)(F)F)c3)on2)C1 (racemic) [Example 245]: 0.1 to 1 µM
Cc1ccccc1CC(=O)Nc1cc(NC(=O)[N-]c2c[n+]([C@H]3CCC[C@H](c4cncnc4)C3)no2)cc(C(F)(F)F)c1: 0.1 to 1 µM
CN(C)C[C@H]1CC[C@H]([n+]2cc([N-]C(=O)Nc3cc(NC(=O)Cc4cccc(CN)c4)cc(C(F)(F)F)c3)on2)CC1: 0.1 to 1 µM
O=C([N-]c1c[n+](CC23CCC(c4cncnc4)(CC2)C3)no1)Nc1ccnc(C(F)(F)F)c1: 0.1 to 1 µM
O=C([N-]c1c[n+](C[C@H]2CC[C@@H](c3cncnc3)CC2)no1)Nc1ccnc(C(F)(F)F)c1: 0.1 to 1 µM

Entry `Cc1ncnc(C)c1-c1ccc(C[n+]2cc([N-]C(=O)Nc3cc(C(F)(F)F)c4ncccc4c3)on2)cc1` — recorded IC50 = 1 to 20 µM

Entry `CN(C)C[C@H]1CC[C@H]([n+]2cc([N-]C(=O)Nc3cc(NC(=O)Cc4ccccc4O)cc(C(F)(F)F)c3)on2)CC1` — recorded IC50 = 1 to 20 µM

Entry `Cc1ncccc1-c1ccc(C[n+]2cc([N-]C(=O)Nc3ccnc(C(F)(F)F)c3)on2)cc1` — recorded IC50 = < 0.1 µM

Entry O=C([N-]c1c[n+](Cc2ccc(-c3cncnc3)cc2)no1)Nc1ccnc(C(F)(F)F)c1 [Example 266] — recorded IC50 = < 0.1 µM

Entry CC(C(=O)Nc1cc(NC(=O)[N-]c2c[n+]([C@H]3CC[C@H](CN(C)C)CC3)no2)cc(C(F)(F)F)c1)c1ccccc1Cl (some centres unmarked) — recorded IC50 = 0.1 to 1 µM

Entry CN(C)C[C@H]1CC[C@H]([n+]2cc([N-]C(=O)Nc3cc(NC(=O)[C@@H](F)c4ccccc4F)cc(C(F)(F)F)c3)on2)CC1 (single isomer, unassigned) — recorded IC50 = < 0.1 µM

Entry `Cc1ccccc1CC(=O)Nc1cc(NC(=O)[N-]c2c[n+]([C@H]3CC[C@H](C(=O)N4CCCC4)CC3)no2)cc(C(F)(F)F)c1` — recorded IC50 = < 0.1 µM

Entry CN(C)C[C@H]1CC[C@H]([n+]2cc([N-]C(=O)Nc3cc(NC(=O)C(F)c4ccccc4F)cc(C(F)(F)F)c3)on2)CC1 (some centres unmarked) — recorded IC50 = 0.1 to 1 µM

Entry `O=C([N-]c1c[n+](C[C@H]2CC[C@@H](c3cncnc3)CC2)no1)Nc1cccc(C(F)(F)F)c1` — recorded IC50 = 1 to 20 µM

Entry `CN(C)C[C@H]1CC[C@H]([n+]2cc([N-]C(=O)Nc3cc(NC(=O)CCc4cn(C)c5ccccc45)cc(C(F)(F)F)c3)on2)CC1` — recorded IC50 = < 0.1 µM

Entry Cc1ncnc(C)c1-c1ccc(C[n+]2cc([N-]C(=O)N[C@H]3CC[C@@]4(C3)CC4(F)F)on2)nc1 (racemic) — recorded IC50 = 1 to 20 µM

Entry `CN(C)C[C@H]1CC[C@H]([n+]2cc([N-]C(=O)Nc3cc(NC(=O)Cc4ccc(C(=O)O)cc4)cc(C(F)(F)F)c3)on2)CC1` — recorded IC50 = 1 to 20 µM

Entry `COc1ncc(-c2ccc(C[n+]3cc([N-]C(=O)Nc4cc(NC(=O)Cc5ccccc5)cc(C(F)(F)F)c4)on3)cc2)c(C)n1` — recorded IC50 = 1 to 20 µM

Entry `CN(C)C[C@H]1CC[C@H]([n+]2cc([N-]C(=O)Nc3cc(NC(=O)C(F)(F)CN4CCCC4)cc(C(F)(F)F)c3)on2)CC1` — recorded IC50 = 1 to 20 µM

Entry `Cc1ncnc(C)c1-c1ccc(C[n+]2cc([N-]C(=O)N[C@H]3CC[C@H](C(F)(F)F)C3)on2)cc1` — recorded IC50 = 0.1 to 1 µM

Entry CNC(=O)[C@H]1CCC[C@@H]([n+]2cc([N-]C(=O)Nc3cc(NC(=O)Cc4ccccc4C)cc(C(F)(F)F)c3)on2)C1 [Example 232] — recorded IC50 = 0.1 to 1 µM

Entry O=C([N-]c1c[n+](Cc2ccc(-c3cncnc3)cc2)no1)Nc1ccnc(C(F)(F)F)c1 [Example 236] — recorded IC50 = 0.1 to 1 µM
